Numbers sourced from patent US20210238260.

- experimental target: Factor X, P00742
- Sequence (P00742 whole entry, looked up): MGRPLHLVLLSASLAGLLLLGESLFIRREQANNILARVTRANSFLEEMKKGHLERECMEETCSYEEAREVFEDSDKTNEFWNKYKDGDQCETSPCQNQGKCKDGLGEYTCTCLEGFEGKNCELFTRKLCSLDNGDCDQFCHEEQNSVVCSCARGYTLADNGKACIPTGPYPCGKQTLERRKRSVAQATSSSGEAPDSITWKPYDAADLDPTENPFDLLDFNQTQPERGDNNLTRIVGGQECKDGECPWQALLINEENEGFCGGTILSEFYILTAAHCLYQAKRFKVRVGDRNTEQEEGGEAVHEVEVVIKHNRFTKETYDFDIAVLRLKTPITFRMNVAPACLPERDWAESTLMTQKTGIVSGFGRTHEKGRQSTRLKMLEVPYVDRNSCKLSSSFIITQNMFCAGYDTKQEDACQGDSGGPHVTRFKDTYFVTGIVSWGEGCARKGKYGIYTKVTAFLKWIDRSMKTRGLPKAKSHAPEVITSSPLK
parameter measured: kcat/KM
Returns: string containing the number followed by the unit.

Given item FIXa-R318Y/R338E/T343R/R403E/E410N (protein) chain 1: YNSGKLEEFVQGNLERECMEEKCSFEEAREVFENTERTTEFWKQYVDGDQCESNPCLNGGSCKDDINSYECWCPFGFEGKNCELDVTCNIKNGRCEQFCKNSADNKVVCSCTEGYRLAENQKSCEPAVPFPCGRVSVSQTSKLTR chain 2: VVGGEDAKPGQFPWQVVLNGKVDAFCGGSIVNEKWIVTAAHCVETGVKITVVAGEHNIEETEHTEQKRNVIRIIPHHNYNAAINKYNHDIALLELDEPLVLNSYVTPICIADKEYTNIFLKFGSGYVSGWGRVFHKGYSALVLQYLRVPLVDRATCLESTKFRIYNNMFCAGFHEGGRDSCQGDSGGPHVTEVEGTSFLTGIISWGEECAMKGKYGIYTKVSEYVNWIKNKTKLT , the value recorded as its kcat/KM is 5.4e+08 M⁻¹ s⁻¹

Given item FIXa-R318Y/R338E/T412A (protein) chain 1: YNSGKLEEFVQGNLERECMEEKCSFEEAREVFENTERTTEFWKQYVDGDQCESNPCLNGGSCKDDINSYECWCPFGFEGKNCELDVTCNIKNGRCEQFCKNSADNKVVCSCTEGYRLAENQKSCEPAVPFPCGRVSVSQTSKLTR chain 2: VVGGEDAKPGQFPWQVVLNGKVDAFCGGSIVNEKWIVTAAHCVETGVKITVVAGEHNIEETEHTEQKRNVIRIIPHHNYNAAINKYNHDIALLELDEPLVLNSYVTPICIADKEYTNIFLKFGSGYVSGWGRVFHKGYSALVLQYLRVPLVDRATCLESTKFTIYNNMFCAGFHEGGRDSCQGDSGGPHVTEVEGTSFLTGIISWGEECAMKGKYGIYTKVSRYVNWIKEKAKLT , the value recorded as its kcat/KM is 3e+08 M⁻¹ s⁻¹
